- system: FhCL1 (Fasciola hepatica, UniProt Q7JNQ9)
- Construct: made in house; host or cells: Hansenula polymorpha (yeast)
- Sequence (Q7JNQ9 entry or part of it): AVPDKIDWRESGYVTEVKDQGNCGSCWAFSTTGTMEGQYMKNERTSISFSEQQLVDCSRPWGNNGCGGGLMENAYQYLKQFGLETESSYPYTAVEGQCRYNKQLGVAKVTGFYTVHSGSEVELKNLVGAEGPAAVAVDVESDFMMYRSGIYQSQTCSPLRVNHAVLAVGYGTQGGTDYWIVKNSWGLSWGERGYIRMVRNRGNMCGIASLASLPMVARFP
- method-description: FhCL1 inhibition screening, IC50 and slow-binding (fluorogenic substrate Z-VLK-AMC)
- Type: biochemical
- setup-conditions: read-out: %Inh FhCL1, 10 µM compound, 20 min preincubation, relative to enzyme alone; SD less than 10%
property-label: inhibition at 10 µM (%)
Entry rule: numbers only, all in %.

Task: GET /values?readout=inhibition at 10 µM&system=FhCL1 (Fasciola hepatica, UniProt Q7JNQ9)&item= CCOC(=O)c1c(-c2ccccc2)[n+]([O-])c2ccc(CN3CCN(C/C=C/c4ccccc4)CC3)cc2[n+]1[O-]
Output: 55

Task: Record: CCCCNC(=O)N/N=C/c1ccc2c(c1)[n+]([O-])c(C#N)c(N)[n+]2[O-]
Output: 59

All figures here come from paper PMC6651555.
